- TEST METHOD NOTES: yeast display, Sf9 membrane polyspecificity reagent, FACS + sequencing; frameworks hold sequencing errors
TEST READOUT: polyreactivity (PSR sort gate)

QVQLVESGGGLVQAGGSLRLSCAPSGRIFRTNTMGWYRQAPGKERELVAAITRGGSTYYADSVKGRFTISRDNAKNTDYLQMKSLKPEDTAVYYCAASRYYNTVHNGGDYWGQGTQVTVSS ... high polyreactivity
QVQLVESGGGLVQAGGSLRLSCAASGLTFYVYTMGWYSQAPGKEWELVAAISSGTTTHYADSVKGRFTISRDNAMNTVYLQMNSLKPEDTAVYYCGADLYHYSRDGYWGQGTQVTVSS ... low polyreactivity
QVQLVESGGGLVQAGGSLRLSCAASGRIYDVYAMGWYRQAPRKERELVATITGSGGGTYYADSVKGRFTISRDNAKNTVYLQMNSLKPEDTAVYYCAADYYPTYAYYVSNVGYDYWGQGTQVNVSS ... low polyreactivity
QVQLVESGGGLVQAGGSLRLSCAASGFIFPTYAMGWYRQAPGKERELVAAISRSGGRTYYADSVKGRFTISRDNAKNTVYLQKNSLKPEDTAVYYCAAAYLRRVAYDYWGQGTQVTVSS ... high polyreactivity
QVQLQESGGGLVQVGGSLRLSCAASGTIFIYGFLGWNRQAPGKERELVASINLGGITNYADSVKGRFTISRDNAKNTVYLQMISLKPEDTAVYYCAAYVVTGQNYGYWGQGTQVTVSC ... low polyreactivity

Cited source for all entries: the nanobody polyreactivity screen of Harvey et al. (2022)
